# testTarget: Human monoamine oxidase B (Homo sapiens, UniProt P27338)
# Construct: purchased Sigma-Aldrich (Milan, Italy)
# Sequence (P27338 1-520): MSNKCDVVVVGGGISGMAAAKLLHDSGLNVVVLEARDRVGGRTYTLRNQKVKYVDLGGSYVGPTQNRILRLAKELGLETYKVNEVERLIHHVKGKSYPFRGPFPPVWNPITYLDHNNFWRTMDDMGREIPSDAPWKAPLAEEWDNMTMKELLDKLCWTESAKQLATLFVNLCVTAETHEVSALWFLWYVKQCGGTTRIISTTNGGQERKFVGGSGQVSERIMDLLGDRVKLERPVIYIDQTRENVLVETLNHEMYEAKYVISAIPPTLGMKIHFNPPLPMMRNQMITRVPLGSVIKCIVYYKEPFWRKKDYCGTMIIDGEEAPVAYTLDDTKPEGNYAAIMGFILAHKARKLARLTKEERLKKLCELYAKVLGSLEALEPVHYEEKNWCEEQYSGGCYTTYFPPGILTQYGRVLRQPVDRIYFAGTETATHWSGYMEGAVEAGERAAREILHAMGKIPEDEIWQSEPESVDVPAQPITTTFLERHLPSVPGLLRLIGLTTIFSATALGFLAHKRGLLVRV
# measurementDescription: Kinetic analysis of MAO-B inhibition (KM, Vmax, apparent Ki)
# Assay type: biochemical
# testSettings: kynuramine 25–150 µM, two fixed inhibitor concentrations
propertyName: Inhibition Type (MAO-B)

{"columns": ["molecule", "propertyName", "testResult"],
 "data": [
  ["COc1cc(CCOC(=O)C2CCN(Cc3ccccc3)CC2)ccc1O [HT3]", "Inhibition Type (MAO-B)", "mixed"],
  ["CC(=O)Oc1ccc(CCOC(=O)C2CCN(Cc3ccccc3)CC2)cc1OC(C)=O [HT1a]", "Inhibition Type (MAO-B)", "mixed"],
  ["COc1cc(CCOC(=O)C2CCN(Cc3ccccc3)CC2)ccc1OC(C)=O [HT3a]", "Inhibition Type (MAO-B)", "mixed"]
]}
